Provide the recorded Ki for the entries that follow.
# Test method notes: Displacement of [3H]-DTG from sigma2 receptor in rat liver membranes after 120 mins by scintillation counting method
# Assay type: cell membranes, Membrane
Write down the numeric answer in nM and omit the unit.

Tell me the measured Ki of `CN(CCCCN1C(=O)c2ccccc2C1=O)Cc1ccc(Cl)cc1` , please. 42

Param item: CN(CCCCN1C(=O)OCC1c1ccccc1)Cc1ccccc1 (racemic) 89

Next up: `CN(CCCCn1ccc2ccccc21)Cc1ccc(Cl)cc1` 1200

Note, next up: `CN(CCCCN1C(=O)CSc2ccccc21)Cc1ccc(Cl)cc1` 169

Could you do the same for `CN(CCCCN1C(=O)CSc2ccccc21)Cc1ccccc1` , please? 105

Now this one: `CN(CCCCN1C(=O)CCc2ccccc21)Cc1ccccc1` 222

Same again, this time with Cc1ccccc1NC(=N)Nc1ccccc1C [DITOLYLGUANIDINE] 54

Record: `CN(CCCCN1C(=O)C(=O)c2ccccc21)Cc1ccc(Cl)cc1` 173

Do the same for `CN(CCCCN1C(=O)COc2ccccc21)Cc1ccccc1` please 274

Let us now turn to `CN(CCCCN1C(=O)OC[C@H]1c1ccccc1)Cc1ccc(Cl)cc1` 603

Same question, `CN(CCCCn1nc(-c2ccccc2)oc1=O)Cc1ccccc1` this time 110

====

# Tgt: Sigma non-opioid intracellular receptor 1 (Cavia porcellus)
# Sequence (Q60492 whole entry): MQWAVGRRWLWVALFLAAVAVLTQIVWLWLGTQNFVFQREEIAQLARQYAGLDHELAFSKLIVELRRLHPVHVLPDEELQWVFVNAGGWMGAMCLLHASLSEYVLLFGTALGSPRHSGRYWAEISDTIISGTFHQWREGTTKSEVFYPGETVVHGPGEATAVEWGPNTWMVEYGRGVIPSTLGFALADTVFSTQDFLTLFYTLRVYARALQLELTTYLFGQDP
# Test method notes: Displacement of [3H]-(+)-pentazocine from sigma1 receptor in guinea pig brain cortex membranes after 120 mins by scintillation counting method
Decide using Ki alone. Strictly below 20 nM: Criterion met. Equal to or above 20 nM: Criterion not met.

Would you kindly verify if Ki of `CN(CCCCN1C(=O)CCCc2ccccc21)Cc1ccccc1` is strictly less than 20 nM? Criterion met

Another compound: CN(CCCCN1C(=O)OCC1c1ccccc1)Cc1ccc(Cl)cc1 (racemic) Criterion met

Record: `CN(CCCCn1nc(-c2ccccc2)oc1=O)Cc1ccc(Cl)cc1` Criterion met

Next record, please: `CN(CCCCn1ccc2ccccc21)Cc1ccccc1` Criterion not met

Can you check `CN(CCCCN1C(=O)OC[C@H]1c1ccccc1)Cc1ccc(Cl)cc1` next? Criterion met

Lookup `CN(CCCCN1C(=O)CCc2ccccc21)Cc1ccccc1` Criterion met

Now consider `CN(CCCCN1C(=O)OC[C@H]1c1ccccc1)Cc1ccccc1` . Criterion met

# iterate: `CN(CCCCN1C(=O)OC[C@@H]1c1ccccc1)Cc1ccc(Cl)cc1` Criterion met

Likewise for `CN(CCCCN1CCCCC1=O)Cc1ccccc1` ? Criterion not met

Field entry: `CN(CCCCN1C(=O)C(=O)c2ccccc21)Cc1ccc(Cl)cc1` Criterion not met

And `CN(CCCCN1C(=O)OC[C@@H]1c1ccccc1)Cc1ccccc1` ? Criterion not met

Query `CN(CCCCN1C(=O)COc2ccccc21)Cc1ccc(Cl)cc1` next Criterion met

Record: `CN(CCCCn1ccc2ccccc21)Cc1ccc(Cl)cc1` Criterion not met

Try the compound CN(CCCCN1C(=O)OCC1c1ccccc1)Cc1ccccc1 (racemic) Criterion met

Same for `CN(CCCCn1nc(-c2ccccc2)oc1=O)Cc1ccccc1` Criterion met

`CN(CCCCN1C(=O)CSc2ccccc21)Cc1ccc(Cl)cc1` ? Criterion met

Try this compound next: `CN(CCCCN1C(=O)CCCc2ccccc21)Cc1ccc(Cl)cc1` Criterion met

Try the compound `CN(CCCCN1C(=O)c2ccccc2C1=O)Cc1ccc(Cl)cc1` Criterion not met
